B1: Retinoic acid receptor beta, residues 85 to 161; numbered along this chain, P10826 (parent)
chain: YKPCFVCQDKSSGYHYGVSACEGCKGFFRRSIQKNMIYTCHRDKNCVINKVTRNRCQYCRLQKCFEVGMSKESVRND

- Variants of: B1
- PROTOCOL: abundance fitness (aPCA) (normalised: wild type 0, dead -1); higher = more abundant; growth selection in yeast, the domain comes from the species named
- MEASUREMENT_CONTEXT: Homo sapiens
Can you tell me abundance fitness for the items I'm about to list?

Enquiry: Report measured abundance fitness; entry is `D43W`
Return: -0.169

Enquiry: Report measured abundance fitness; entry is `L61Q`
Return: -0.336

Enquiry: Report measured abundance fitness; entry is `K50W`
Return: 0.25

Enquiry: Report measured abundance fitness; entry is `G26S`
Return: -0.254

Enquiry: Report measured abundance fitness; entry is `V18R`
Return: -0.76

Enquiry: Report measured abundance fitness; entry is `Y16Q`
Return: -0.027

Enquiry: Report measured abundance fitness; entry is `C21F`
Return: -1.14

Enquiry: Report measured abundance fitness; entry is `T52C`
Return: -0.451

Enquiry: Report measured abundance fitness; entry is `G17D`
Return: -0.246

Enquiry: Report measured abundance fitness; entry is `R42Y`
Return: 0.033

Enquiry: Report measured abundance fitness; entry is `S11N`
Return: 0.173

Enquiry: Report measured abundance fitness; entry is `E22Q`
Return: -0.316

Enquiry: Report measured abundance fitness; entry is `C4Y`
Return: -0.592

Enquiry: Report measured abundance fitness; entry is `T52G`
Return: -0.029

Enquiry: Report measured abundance fitness; entry is `K50V`
Return: 0.208

Enquiry: Report measured abundance fitness; entry is `D9V`
Return: -0.753

Enquiry: Report measured abundance fitness; entry is `I48N`
Return: -0.376

Enquiry: Report measured abundance fitness; entry is `Y58W`
Return: 0.107

Enquiry: Report measured abundance fitness; entry is `R55C`
Return: 0.102

Enquiry: Report measured abundance fitness; entry is `K10P`
Return: -0.03

Enquiry: Report measured abundance fitness; entry is `G26I`
Return: -0.078

Enquiry: Report measured abundance fitness; entry is `G26F`
Return: -0.193

Enquiry: Report measured abundance fitness; entry is `R53A`
Return: 0.183

Enquiry: Report measured abundance fitness; entry is `F28G`
Return: -0.82

Enquiry: Report measured abundance fitness; entry is `F27E`
Return: -0.822

Enquiry: Report measured abundance fitness; entry is `Y14K`
Return: 0.012

Enquiry: Report measured abundance fitness; entry is `T52M`
Return: 0.02

Enquiry: Report measured abundance fitness; entry is `G17R`
Return: -0.288

Enquiry: Report measured abundance fitness; entry is `F27P`
Return: -0.888

Enquiry: Report measured abundance fitness; entry is `C24W`
Return: -0.955

Enquiry: Report measured abundance fitness; entry is `N54T`
Return: 0.185

Enquiry: Report measured abundance fitness; entry is `C24R`
Return: -0.793

Enquiry: Report measured abundance fitness; entry is `E22W`
Return: -0.368

Enquiry: Report measured abundance fitness; entry is `Y16L`
Return: -0.045

Enquiry: Report measured abundance fitness; entry is `L61E`
Return: -0.635

Enquiry: Report measured abundance fitness; entry is `R55D`
Return: 0.244

Enquiry: Report measured abundance fitness; entry is `N54Y`
Return: 0.112

Enquiry: Report measured abundance fitness; entry is `Y38A`
Return: -0.59

Enquiry: Report measured abundance fitness; entry is `N45H`
Return: -0.021

Enquiry: Report measured abundance fitness; entry is `C56K`
Return: -0.978

Enquiry: Report measured abundance fitness; entry is `G26H`
Return: -0.109

Enquiry: Report measured abundance fitness; entry is `Y14T`
Return: 0.042

Enquiry: Report measured abundance fitness; entry is `S31T`
Return: 0.148

Enquiry: Report measured abundance fitness; entry is `I32F`
Return: -0.633

Enquiry: Report measured abundance fitness; entry is `V6A`
Return: -0.711

Enquiry: Report measured abundance fitness; entry is `K25H`
Return: -0.223

Enquiry: Report measured abundance fitness; entry is `V47M`
Return: 0.075

Enquiry: Report measured abundance fitness; entry is `C4Q`
Return: -0.889

Enquiry: Report measured abundance fitness; entry is `A20C`
Return: 0.064

Enquiry: Report measured abundance fitness; entry is `C4A`
Return: -0.691

Enquiry: Report measured abundance fitness; entry is `T39M`
Return: 0.061

Enquiry: Report measured abundance fitness; entry is `L61P`
Return: -0.754

Enquiry: Report measured abundance fitness; entry is `A20E`
Return: -0.66

Enquiry: Report measured abundance fitness; entry is `C46N`
Return: -0.704

Enquiry: Report measured abundance fitness; entry is `R30V`
Return: -1.02

Enquiry: Report measured abundance fitness; entry is `C7L`
Return: -0.832

Enquiry: Report measured abundance fitness; entry is `V18F`
Return: -0.108

Enquiry: Report measured abundance fitness; entry is `M36P`
Return: -0.216

Enquiry: Report measured abundance fitness; entry is `Q33L`
Return: 0.078

Enquiry: Report measured abundance fitness; entry is `S11P`
Return: -0.088

Enquiry: Report measured abundance fitness; entry is `N54F`
Return: 0.089

Enquiry: Report measured abundance fitness; entry is `N35H`
Return: -0.373

Enquiry: Report measured abundance fitness; entry is `V6W`
Return: -0.795

Enquiry: Report measured abundance fitness; entry is `I32V`
Return: 0.055

Enquiry: Report measured abundance fitness; entry is `N54H`
Return: 0.067

Enquiry: Report measured abundance fitness; entry is `R55A`
Return: 0.18

Enquiry: Report measured abundance fitness; entry is `R29D`
Return: -0.079

Enquiry: Report measured abundance fitness; entry is `R29I`
Return: 0.069

Enquiry: Report measured abundance fitness; entry is `A20Q`
Return: -0.355

Enquiry: Report measured abundance fitness; entry is `N45E`
Return: 0.049

Enquiry: Report measured abundance fitness; entry is `V47D`
Return: 0.168

Enquiry: Report measured abundance fitness; entry is `C56W`
Return: -0.893

Enquiry: Report measured abundance fitness; entry is `R29K`
Return: -0.092

Enquiry: Report measured abundance fitness; entry is `K50R`
Return: 0.153

Enquiry: Report measured abundance fitness; entry is `S19D`
Return: -0.285

Enquiry: Report measured abundance fitness; entry is `Q33F`
Return: -0.148

Enquiry: Report measured abundance fitness; entry is `C56M`
Return: -0.768

Enquiry: Report measured abundance fitness; entry is `C46D`
Return: -0.352

Enquiry: Report measured abundance fitness; entry is `Y16S`
Return: -0.072

Enquiry: Report measured abundance fitness; entry is `G26M`
Return: -0.396

Enquiry: Report measured abundance fitness; entry is `K50G`
Return: 0.153

Enquiry: Report measured abundance fitness; entry is `S19Y`
Return: -0.048

Enquiry: Report measured abundance fitness; entry is `Y14V`
Return: 0.092

Enquiry: Report measured abundance fitness; entry is `K10N`
Return: 0.146

Enquiry: Report measured abundance fitness; entry is `C46T`
Return: -0.53

Enquiry: Report measured abundance fitness; entry is `Q8M`
Return: 0.029

Enquiry: Report measured abundance fitness; entry is `Q57G`
Return: 0.2

Enquiry: Report measured abundance fitness; entry is `P3N`
Return: 0.162

Enquiry: Report measured abundance fitness; entry is `R30E`
Return: 0.142

Enquiry: Report measured abundance fitness; entry is `G23A`
Return: 0.016

Enquiry: Report measured abundance fitness; entry is `V6I`
Return: -0.13
